Data provenance is patent US20210130452A1.

Biological target: T1, human IL-17F (human, UniProt Q96PD4 31-163)
T1 construct: GenBank AF384857, expressed in Hek293 as 6-His C-terminal tagged protein; also called hIL-17F; IL-17F-6HIS
T1 sequence: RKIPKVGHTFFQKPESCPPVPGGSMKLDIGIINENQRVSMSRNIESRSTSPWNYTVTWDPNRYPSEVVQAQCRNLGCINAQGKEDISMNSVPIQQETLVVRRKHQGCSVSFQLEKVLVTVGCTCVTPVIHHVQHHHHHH
Assay: ELISA, coated IL-17F;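 note: binding ELISA on coated antigen from various species, with bound Nanobodies revealed by an HRP-linked anti-myc antibody and esTMB substrate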
Field: OD. Provide a value for each of the binders that follow.
Provide the reading as a plain figure in OD.

QUERY: Given the entry 13E02 (VHH, Class 4; also called IL17MS13E02) VHH: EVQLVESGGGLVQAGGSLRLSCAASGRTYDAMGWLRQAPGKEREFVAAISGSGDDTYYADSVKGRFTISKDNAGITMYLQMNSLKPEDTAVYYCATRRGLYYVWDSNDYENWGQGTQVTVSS , report its measured OD.
RESULT: 1.1

QUERY: Given the entry 17C01 (VHH, Class 4) VHH: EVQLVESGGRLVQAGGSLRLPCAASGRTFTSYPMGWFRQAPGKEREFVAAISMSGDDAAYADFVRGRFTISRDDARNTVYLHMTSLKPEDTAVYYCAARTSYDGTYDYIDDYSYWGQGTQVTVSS , report its measured OD.
RESULT: 0.772

QUERY: Given the entry 11A06 (VHH, Class 2) VHH: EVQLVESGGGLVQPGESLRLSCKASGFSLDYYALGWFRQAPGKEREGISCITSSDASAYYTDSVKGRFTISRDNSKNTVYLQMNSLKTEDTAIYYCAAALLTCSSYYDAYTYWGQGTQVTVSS , report its measured OD.
RESULT: 0.673

QUERY: Given the entry 04G01 (VHH, Class 2; also called IL17MS04G01) VHH: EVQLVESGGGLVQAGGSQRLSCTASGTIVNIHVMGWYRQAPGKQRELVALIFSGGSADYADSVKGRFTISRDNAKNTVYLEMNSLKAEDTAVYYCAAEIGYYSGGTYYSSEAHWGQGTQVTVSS , report its measured OD.
RESULT: -0.016
